- METHOD: polyglutamine-triggered caspase-3 activation inhibitors, cell-based (AID 1583)
- MEASUREMENT_PARAMETERS: polyglutamine-induced caspase-3 activation, cell assay; stronger effect = higher value;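 tested at 10 µM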
REPORTED_METRIC: inhibition (%)
Could you give me the number in %? Just the number is fine.

Example results:
CC[C@@H]1C(=O)OC[C@@H]1Cc1cncn1C; 5.24
[N-]=[N+]=CC(=O)OCC(N)C(=O)O (stereo not drawn); 30.9
CCN1C[C@@]2(COC)C3[C@@H](OC)[C@H]4[C@@H]1[C@]3(C(OC)C[C@H]2O)C1C[C@@]2(O)[C@H](OC(=O)c3ccccc3)C1[C@]4(OC(C)=O)[C@@H](O)[C@@H]2OC (stereo partly drawn); -1.76

Entry `O=C1CN=C(c2ccccc2Cl)c2cc([N+](=O)[O-])ccc2N1` — recorded inhibition = 12.9

Lab note: measured inhibition of CNC(C)C(=O)c1ccccc1 (stereo not drawn) was -15.1

// sample `C=CCc1ccc2c(c1)OCO2` , its inhibition was -35.5

Per the records, this molecule ( C/C=C(\C)C(=O)O[C@H]1C[C@@H](OC(C)=O)[C@@]2(C(=O)OC)CO[C@@H]3C2[C@]12CO[C@](O)(C(=O)OC)[C@H]2[C@](C)(C12O[C@@]1(C)[C@H]1C[C@@H]2OC2OC=C[C@@]21O)[C@@H]3O (stereo partly drawn) ) has inhibition equal to 0.47

Measured inhibition of `CN(C)[C@@H]1C(=O)C(C(N)=O)=C(O)[C@@]2(O)C(=O)C3=C(O)c4c(O)cccc4[C@@](C)(O)[C@H]3[C@H](O)[C@@H]12` : -0.04
